# Test system: Candida albicans
# method.summary: […] activity against Fluconazole resistant Candida albicans DSY3608 containing tac1delta/delta ERG11-1/ERG11-1 (TAC1-1) genotype by EUCAST standards based broth microdilution method sCandida albicans DSY294
# Assay type: functional
readout.label: fold change (FC)
Hey, just send me the number, nothing else.

Known results for compounds:
INSERT INTO measurements (compound, data_value) VALUES
  ('CC[C@@H]([C@H](C)O)n1ncn(-c2ccc(N3CCN(c4ccc(OC[C@@H]5CO[C@@](Cn6cncn6)(c6ccc(F)cc6F)C5)cc4)CC3)cc2)c1=O', 1),
  ('C[C@@H](c1ncncc1F)[C@](O)(Cn1cncn1)c1ccc(F)cc1F', 1);

Just so you know, measured fold change (FC) for CCC(C)n1ncn(-c2ccc(N3CCN(c4ccc(OCC5COC(Cn6cncn6)(c6ccc(Cl)cc6Cl)O5)cc4)CC3)cc2)c1=O (centres undefined) came out at 2

Reported fold change (FC) of OC(Cn1cncn1)(Cn1cncn1)c1ccc(F)cc1F : 1
